Target: mutant G2019S LRRK2 (Homo sapiens (Human), UniProt Q5S007, G2019S)
Sequence (Q5S007 970-2527 G2019S): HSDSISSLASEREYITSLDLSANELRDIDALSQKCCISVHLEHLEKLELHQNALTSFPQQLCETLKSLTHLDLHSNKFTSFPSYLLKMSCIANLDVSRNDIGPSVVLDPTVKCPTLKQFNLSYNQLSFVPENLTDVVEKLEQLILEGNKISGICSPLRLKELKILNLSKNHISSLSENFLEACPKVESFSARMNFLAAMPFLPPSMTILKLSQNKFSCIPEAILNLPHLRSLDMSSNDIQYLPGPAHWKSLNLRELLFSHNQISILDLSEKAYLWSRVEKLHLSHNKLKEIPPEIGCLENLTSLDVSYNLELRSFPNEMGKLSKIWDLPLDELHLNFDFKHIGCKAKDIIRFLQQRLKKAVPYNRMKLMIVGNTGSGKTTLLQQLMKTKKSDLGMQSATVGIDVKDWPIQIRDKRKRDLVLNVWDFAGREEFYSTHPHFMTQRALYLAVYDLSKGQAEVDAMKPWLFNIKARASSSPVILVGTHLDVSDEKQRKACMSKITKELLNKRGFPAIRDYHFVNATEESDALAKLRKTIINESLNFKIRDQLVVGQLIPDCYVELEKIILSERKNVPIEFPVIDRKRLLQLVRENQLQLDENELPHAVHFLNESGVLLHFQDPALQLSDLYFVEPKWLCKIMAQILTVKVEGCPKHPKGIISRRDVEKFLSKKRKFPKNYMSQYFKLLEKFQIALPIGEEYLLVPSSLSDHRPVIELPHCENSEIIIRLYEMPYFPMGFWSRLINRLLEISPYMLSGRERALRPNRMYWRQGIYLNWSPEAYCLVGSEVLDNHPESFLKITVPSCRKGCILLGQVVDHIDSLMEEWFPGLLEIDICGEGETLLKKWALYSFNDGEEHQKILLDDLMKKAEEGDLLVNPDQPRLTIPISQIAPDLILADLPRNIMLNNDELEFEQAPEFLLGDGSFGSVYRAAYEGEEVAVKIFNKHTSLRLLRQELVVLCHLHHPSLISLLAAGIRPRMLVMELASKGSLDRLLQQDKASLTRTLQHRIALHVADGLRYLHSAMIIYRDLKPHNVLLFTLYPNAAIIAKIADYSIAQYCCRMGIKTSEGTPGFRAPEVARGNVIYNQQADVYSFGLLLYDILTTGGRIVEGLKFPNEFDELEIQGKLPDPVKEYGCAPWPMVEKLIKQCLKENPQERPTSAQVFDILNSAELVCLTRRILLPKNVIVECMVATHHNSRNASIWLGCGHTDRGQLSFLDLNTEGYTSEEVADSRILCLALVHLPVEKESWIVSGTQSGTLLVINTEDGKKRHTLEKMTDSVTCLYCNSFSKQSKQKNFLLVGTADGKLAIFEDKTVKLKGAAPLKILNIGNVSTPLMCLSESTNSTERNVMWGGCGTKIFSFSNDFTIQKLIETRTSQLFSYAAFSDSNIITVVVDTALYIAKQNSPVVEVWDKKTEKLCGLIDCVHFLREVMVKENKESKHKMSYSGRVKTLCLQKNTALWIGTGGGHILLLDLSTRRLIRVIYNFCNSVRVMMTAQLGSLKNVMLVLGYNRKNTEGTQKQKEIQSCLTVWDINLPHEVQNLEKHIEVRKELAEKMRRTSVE
Test: LRRK2 Lantha Screen kinase assay, mutant enzyme
Conditions: geometric mean of 2-5 determinations unless otherwise indicated (a: >=6 determinations; b: single determination)
Field: IC50. Provide a value for each of the molecules that follow.
Value expressed in nM; do not type the unit.

Per the record, Cn1cc(-c2c[nH]c3ncnc(N4CCOC(CO)C4)c23)cn1 (centres unmarked) [Example 124] has IC50 of 80

Per the record, N#Cc1cccc(-c2c[nH]c3ncnc(N4CCCC(O)C4)c23)c1F (centres unmarked) [Example 178] has IC50 of 42

Per the record, N#Cc1cccc(-c2c[nH]c3ncnc(N4CCCC4)c23)c1 [Example 70] has IC50 of 64

Per the record, COc1ccccc1-c1c[nH]c2ncnc(N3CCCC3)c12 [Example 176] has IC50 of 68

Per the record, C[C@H]1CCCN(c2ncnc3[nH]cc(-c4ccc5[nH]ncc5c4)c23)C1 [Example 45] has IC50 of 66

Per the record, N#Cc1cccc(-c2c[nH]c3ncnc(N4CCOC(c5cc[nH]n5)C4)c23)c1 (single isomer, unassigned) [Example 76] has IC50 of 208

Per the record, N#Cc1cccc(-c2c[nH]c3ncnc(NCCN4CCOCC4)c23)c1 [Example 42] has IC50 of 487

Per the record, N#Cc1cccc(-c2c[nH]c3ncnc(N4CCC(F)CC4)c23)c1 [Example 33A] has IC50 of 56

Per the record, Fc1ccccc1-c1c[nH]c2ncnc(N3CCOCC3)c12 [Example 84] has IC50 of 30

Per the record, C[C@H]1CCCN(c2ncnc3[nH]cc(-c4ccc5c(c4)C(=O)NC5)c23)C1 [Example 54] has IC50 of 59

Per the record, CN(C)CC1CN(c2ncnc3[nH]cc(-c4cccc(C#N)c4)c23)CCO1 (centres unmarked) [Example 143] has IC50 of 110

Per the record, Cc1nnc(C2CCCN(c3ncnc4[nH]cc(-c5cccc(C#N)c5)c34)C2)o1 (centres unmarked) [Example 146] has IC50 of 217

Per the record, COc1ccc(C#N)cc1-c1c[nH]c2ncnc(N3C[C@H](C)C[C@H](C)C3)c12 [Example 65] has IC50 of 176

Per the record, Fc1cccc(-c2c[nH]c3ncnc(N4CCOCC4)c23)c1F [Example 87] has IC50 of 24

====

Target: mutant G2019S LRRK2 (Homo sapiens (Human), UniProt Q5S007, G2019S)
Assay: LRRK2 Lantha Screen kinase assay, mutant enzyme
Settings: geometric mean of 2-5 determinations unless otherwise indicated (a: >=6 determinations; b: single determination)
Field: pIC50. Provide a value for each of the compounds that follow.
Please express pIC50 as -log10 of the molar concentration.

mutant G2019S LRRK2 (Homo sapiens (Human), UniProt Q5S007, G2019S) pIC50 of COc1cc(C#N)cc(-c2c[nH]c3ncnc(N(C)C)c23)c1 [Example 147] is 7.03

mutant G2019S LRRK2 (Homo sapiens (Human), UniProt Q5S007, G2019S) pIC50 of N#Cc1cccc(-c2c[nH]c3ncnc(N4CCCC4)c23)c1F [Example 184] is 7.09

mutant G2019S LRRK2 (Homo sapiens (Human), UniProt Q5S007, G2019S) pIC50 of COc1ccccc1-c1c[nH]c2ncnc(N3CC[C@H](F)C3)c12 [Example 175] is 7.27

mutant G2019S LRRK2 (Homo sapiens (Human), UniProt Q5S007, G2019S) pIC50 of COc1ccc(F)cc1-c1c[nH]c2ncnc(N3CCCC(F)C3)c12 (stereo not shown) [Example 181] is 7.62

mutant G2019S LRRK2 (Homo sapiens (Human), UniProt Q5S007, G2019S) pIC50 of c1ccc(-c2c[nH]c3ncnc(N4CCCC4)c23)cc1 [Example 18] is 7.33

mutant G2019S LRRK2 (Homo sapiens (Human), UniProt Q5S007, G2019S) pIC50 of COc1cncc(-c2c[nH]c3ncnc(N4CCOCC4)c23)n1 [Example 151] is 7.43

mutant G2019S LRRK2 (Homo sapiens (Human), UniProt Q5S007, G2019S) pIC50 of OCc1cc(-c2c[nH]c3ncnc(N4CCOCC4)c23)ccc1F [Example 98] is 6.87
